System: NHE3
Assay: Effect of N-terminal truncations of N3SP-1 on NHE3 activity in human enteroids (BCECF-fluorometry)
Assay type: cell-based
Conditions: basal NHE3 activity, human duodenal enteroids, BCECF-fluorometry, Hill equation
Experimental: NHE3 activity in PS120, Caco-2/BBe cells and human jejunal enteroids was determined fluorometrically (Photon Technologies Incorporated) using the intracellular pH sensitive dye BCECF, as reported (Levine et al., 1993; Sarker et al., 2008; Foulke-Abel et al., 2020). […] Concentration dependent effects on NHE3 basal activity was determined using BCECF-fluorometry. Kinetic analysis was determined of extent of stimulation of basal NHE3 activity; analysis was by use of the Hill equation. […]
assayEndpoint: Stimulation of NHE3 Activity

INSERT INTO results (substance, assayendpoint, measured) VALUES
  ('N3SP-1 lacking first seven N-terminal amino acids: RPSTVEASVSYLLRESASAVCLDMQSLEQRR [Peptide N3SP-1Δ7]', 'Stimulation of NHE3 Activity', 'YES (39%)'),
  ('N3SP-1 N-terminal truncation of 5 aa: TPRPSTVEASVSYLLRESASAVCLDMQSLEQRR [Peptide N3SP-1Δ5]', 'Stimulation of NHE3 Activity', 'YES (39%)');

* * *

tested on: NHE3; assay: NHE3 activity in polarized Caco-2/BBe/HA3-NHE3 cells (BCECF); type: cell-based; details: BODIPY-conjugated peptide added apically, Caco-2/BBe cells, Hill equation; read-out: EC50 of prevention of FSK inhibition of NHE3
assayEndpoint: EC50 (nM)

INSERT INTO measurements (substance, unitsymbol, measured) VALUES
  ('NHE3 mimetic peptide, rabbit NHE3 aa 568-605: NVDFSTPRPSTVEASVSYLLRESASAVCLDMQSLEQRR [Peptide N3SP-1]', 'nM', 157);

* * *

tested on: NHE3; assay: NHE3 stimulation, summary statement over models and delivery systems; assay type: cell-based; conditions: using either delivery system (maleimide or nanoparticles); read-out: EC50 for stimulation of basal and second messenger inhibited NHE3
pEC50: −log10 of the molar value.
assayEndpoint: pEC50

INSERT INTO measurements (substance, target, measured) VALUES
  ('N3SP: general name of the NHE3 stimulatory peptide (N3SP-1 and active truncations) (RPSTVEASVSYLLRESASAVCLDMQSLEQRR) [Peptide N3SP]', 'NHE3', '~6.82');
